Target: T1, Bfl-1, Q16548
T1 chain: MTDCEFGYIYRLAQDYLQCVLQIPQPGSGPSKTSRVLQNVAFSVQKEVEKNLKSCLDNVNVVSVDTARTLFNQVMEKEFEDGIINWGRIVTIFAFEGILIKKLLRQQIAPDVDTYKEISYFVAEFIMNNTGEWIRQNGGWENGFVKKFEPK
Experiment: peptide SPOT array, c-Myc-tagged receptor at 1 uM or 100 nM, anti-c-Myc-Cy3
readoutName: SPOT signal as a fraction of Bim BH3's signal on the same receptor and array
Response field accepts a number only; no unit should be typed.

Worked cases, SPOT signal as a fraction of Bim BH3's signal on the same receptor and array given:
binder	testValue
SDIRDDISEQVRHVGRTVRGHPRKKL [TMEM184C]	0.29
MSLFLRVVFSDTMFGDLFEEEYSTVS [USP40]	0.04
IQENVDISTVYQIFLDEVLGSGQFGI [PRKD3]	0.05
VFERCELARTLKRLGMDGYRGISLAN [LYZ]	0.74
CLSCDLCGCRLGEVGRRLYYKLGRKL [LMO2]	1.61
SEIMHSFAKCIEVMLDGCLNNEHFEE [IPO5]	0.04

Moving on to another binder below.
Incoming: Indicate its recorded SPOT signal as a fraction of Bim BH3's signal on the same receptor and array; the binder in question is FDHMVPLVEEINRLADELNPLNASQE [C7orf26]
Outgoing: 0.01

// provenance: paper PMC4072508
